molecules and their reported IC50
biological target: UniProtKB Q99788; test: Displacement of [125I]-chemerin from ChemR23 (unknown origin) transfected in mouse BaF3 cells after 3 hrs by scintillation counting method
Sequence (Q99788 whole entry): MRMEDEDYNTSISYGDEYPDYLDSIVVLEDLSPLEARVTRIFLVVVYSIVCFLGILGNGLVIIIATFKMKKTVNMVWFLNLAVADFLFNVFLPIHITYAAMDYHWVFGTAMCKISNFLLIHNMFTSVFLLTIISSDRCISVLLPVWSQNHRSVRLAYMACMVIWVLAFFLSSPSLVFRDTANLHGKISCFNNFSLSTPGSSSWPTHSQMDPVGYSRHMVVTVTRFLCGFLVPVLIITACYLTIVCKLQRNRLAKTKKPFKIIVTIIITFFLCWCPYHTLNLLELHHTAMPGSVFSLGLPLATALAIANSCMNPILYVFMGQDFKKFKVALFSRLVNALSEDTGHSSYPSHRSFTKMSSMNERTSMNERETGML

Recorded results for 5 molecules are shown here.
- molecule: "Cc1cccc(CCO)c1N1CC(C(=O)Nc2cc(C(F)(F)F)cc(C(F)(F)F)c2)(C(C)C)CC1=O (configuration not stated)"
  value_reported: "0.3 to 6 µM"
- molecule: "Cc1cccc(C)c1N1C[C@](C(=O)Nc2cc(C(F)(F)F)cc(C(F)(F)F)c2)(C(C)C)[C@H](C)C1=O"
  value_reported: "0.03 to 0.3 µM"
- molecule: "Cc1cccc(CN2CCOCC2)c1N1CC(C(=O)Nc2cc(C(F)(F)F)cc(C(F)(F)F)c2)(C(C)C)CC1=O (configuration not stated)"
  value_reported: "0.03 to 0.3 µM"
- molecule: "Cc1cccc(C)c1N1C[C@@](CN2CCC2)(C(=O)Nc2cc(C(F)(F)F)cc(C(F)(F)F)c2)[C@H](C)C1=O"
  value_reported: "0.03 to 0.3 µM"
- molecule: "CC(C)C1(C(=O)Nc2cc(C3CC3)cc(C(F)(F)F)c2)CC(=O)N(c2ccccc2Cl)C1 (configuration not stated)"
  value_reported: "0.03 to 0.3 µM"

Identify measured IC50 corresponding to CCCC1(C(=O)Nc2cc(C(F)(F)F)cc(C(F)(F)F)c2)CC(=O)N(c2c(C)cccc2C)C1 (configuration not stated)
≤ 0.03 µM

Identify measured IC50 corresponding to Cc1cccc(C)c1N1CC2(C(=O)Nc3cc(C(F)(F)F)cc(C(F)(F)F)c3)C[C@H](F)CC2C1=O (some centres not stated)
≤ 0.03 µM

---

molecules and their reported IC50
target: UniProtKB Q99788; assay: Displacement of [125I]-chemerin from ChemR23 (unknown origin) transfected in mouse BaF3 cells after 3 hrs by scintillation counting method

Recorded results for 4 molecules are shown here.
- molecule: "CCN(C)C[C@@]1(C(=O)Nc2cc(C#N)cc(C(F)(F)F)c2)CN(c2c(C)cccc2C)C(=O)[C@H]1C"
  tgt: "UniProtKB Q99788"
  IC50: "≤ 30 nM"
- molecule: "CC[C@@H]1C(=O)N(c2c(C)cccc2C)C[C@@]1(C)C(=O)Nc1cc(C(F)(F)F)cc(C(F)(F)F)c1"
  tgt: "UniProtKB Q99788"
  IC50: "≤ 30 nM"
- molecule: "Cc1cccc(F)c1N1CC(C(=O)Nc2cccc(Cl)c2)CC1=O (stereo unspecified)"
  tgt: "UniProtKB Q99788"
  IC50: "300 to 6000 nM"
- molecule: "Cc1cccc(C)c1N1C[C@@](CN(C)C(C)C)(C(=O)Nc2cc(C(F)(F)F)cc(C(F)(F)F)c2)[C@H](C)C1=O"
  tgt: "UniProtKB Q99788"
  IC50: "≤ 30 nM"

Identify measured IC50 corresponding to CC(C)C1(C(=O)Nc2cc(C(F)(F)F)cc(C(F)(F)F)c2)CC(=O)N(c2ccccc2C2CC2)C1 (stereo unspecified)
30 to 300 nM

Identify measured IC50 corresponding to CCOCc1cccc(C)c1N1CC(C(=O)Nc2cc(C(F)(F)F)cc(C(F)(F)F)c2)(C(C)C)CC1=O (stereo unspecified)
300 to 6000 nM

Identify measured IC50 corresponding to Cc1cccc(Br)c1N1CC(C(=O)Nc2cc(C(F)(F)F)cc(C(F)(F)F)c2)(C(C)C)CC1=O (stereo unspecified)
≤ 30 nM

Identify measured IC50 corresponding to CNC1(C(=O)Nc2cc(C(F)(F)F)cc(C(F)(F)F)c2)CC(=O)N(c2c(C)cccc2C)C1 (stereo unspecified)
≤ 30 nM

Identify measured IC50 corresponding to `Cc1cccc(C)c1N1C[C@@](CN(C)C2CCC2)(C(=O)Nc2cc(OC(C)C)cc(C(F)(F)F)c2)[C@H](C)C1=O`
30 to 300 nM

Identify measured IC50 corresponding to `Cc1cccc(C)c1N1C[C@](C(=O)Nc2cc(C3CC3)cc(C(F)(F)F)c2)(C(C)C)CC1=O`
≤ 30 nM

Identify measured IC50 corresponding to Cc1cccc(C)c1N1CC(C(=O)Nc2cc(C(F)(F)F)cc(C(F)(F)F)c2)CC1=O (stereo unspecified)
≤ 30 nM

Source listed as ChEMBL document CHEMBL3879908.
